# TARGET_OF_ASSAY: T1, Anti-CD28 Fab (SEQ ID NOs: 696, 697)
# T1 construct: Biotinylated and captured on neutravidin coated plates in the phage ELISA
# ASSAY_OVERVIEW: phage ELISA on plate-bound anti-CD28 Fab, wells pre-incubated with CD28 antigen as competitor
ASSAY_METRIC: Anti-CD28 Fab signal in the presence of CD28 (phage binding ELISA)
Hey, just send me the number, nothing else.

## Input Output measured Anti-CD28 Fab signal in the presence of CD28 (phage binding ELISA) for this item: YCEGHADIYMQKCL (Clonal phage of the Peptide-87 library) [Phage-675]
## Output 0.07

## Input Output measured Anti-CD28 Fab signal in the presence of CD28 (phage binding ELISA) for this item: YCEGHAPQYIQKCL (Clonal phage of the Peptide-87 library) [Phage-670]
## Output 0.07

## Input Output measured Anti-CD28 Fab signal in the presence of CD28 (phage binding ELISA) for this item: YCDGHAPEYVMKCL (Clonal phage of the Peptide-87 library) [Phage-682]
## Output 0.1

## Input Output measured Anti-CD28 Fab signal in the presence of CD28 (phage binding ELISA) for this item: YCDGHLPAYMAKCL (Clonal phage of the Peptide-87 library) [Phage-672]
## Output 0.12

## Input Output measured Anti-CD28 Fab signal in the presence of CD28 (phage binding ELISA) for this item: YCDGHAPQYMGKCL (Clonal phage of the Peptide-87 library) [Phage-677]
## Output 0.08

## Input Output measured Anti-CD28 Fab signal in the presence of CD28 (phage binding ELISA) for this item: YCDGHELRYMAKCL (Clonal phage of the Peptide-87 library) [Phage-671]
## Output 0.07

## Input Output measured Anti-CD28 Fab signal in the presence of CD28 (phage binding ELISA) for this item: YCEGHLPIYMDKCL (Clonal phage of the Peptide-87 library) [Phage-678]
## Output 0.08

## Input Output measured Anti-CD28 Fab signal in the presence of CD28 (phage binding ELISA) for this item: YCEGHAPEYMMKCI (Clonal phage of the Peptide-87 library) [Phage-674]
## Output 0.06
